Molecular target: HLA-A*03:01
Test: IEDB peptide-MHC binding, purified MHC/competitive/fluorescence; filed as Kd, often an IC50 or EC50 that approximates it; bounds were set here for any values at or beyond the usual limits of such assays
Details: source organism: Influenza A virus (A/swine/Italy/2/1979(H1N1))
measurement-name: pKd
Answers are plain numbers, as −log10 of the molar value.

stdin: What measured pKd goes with RVSSFIRGKK ?
stdout: 8.60

----------
Molecular target: HLA-A*26:02
Test: IEDB peptide-MHC binding, purified MHC/direct/fluorescence; filed as Kd, often an IC50 or EC50 that approximates it; bounds were set here for any values at or beyond the usual limits of such assays
Settings: source organism: Brucella suis 1330
pKd: −log10 of the molar value.
measurement-name: pKd

stdin: What measured pKd goes with GLAEKPNDY ?
stdout: ≤ 4.70

The reported numbers originate from the Immune Epitope Database (IEDB).
